# Survival per entry
Molecular target: Nitric oxide synthase, inducible (Mus musculus)
Test: Inhibition of iNOS-mediated nitric oxide production in LPS-stimulated mouse RAW 264.7 cells assessed as cell survival at 50 uM pretreated 15 mins before LPS challenge measured after 20 hrs relative to control
Type: cell-based
Observation type: Survival (%)

- C=CCOC(=O)N1Cc2[nH]c3ccccc3c2C[C@H]1C(=O)OC: 94.2
- O=C(O)[C@H]1Cc2c([nH]c3ccccc23)CN1: 95.9
- O=C(O)[C@@H]1Cc2c([nH]c3ccccc23)CN1Cc1ccc(O)cc1: 90.3
- COC(=O)[C@H]1Cc2c([nH]c3ccccc23)CN1: 116
- O=C(O)[C@@H]1Cc2c([nH]c3ccccc23)CN1 [CYCLOMETHYLTRYPTOPHAN]: 100
- COC(=O)[C@@H]1Cc2c([nH]c3ccccc23)CN1S(=O)(=O)c1ccc(Br)cc1: 89.2

Data origin, for the record: ChEMBL document CHEMBL1914395
